System: three-mutation introduced D-type amino acid dehydrogenase (Thr174Ile, Arg184Met, His230Asn)
Experiment: D-amino acid synthesis activity, three-mutation enzyme
Assay type: biochemical, Numidum massiliense
Settings: 5 mM 2-oxo acid, 0.1 mM NADPH, 200 mM ammonium chloride, pH 9.5, 50° C.
Protocol: DNA encoding polypeptide in which three types of mutations (Thr174Ile, Arg184Met, and His230Asn) were introduced into the amino acid sequence of D-type amino acid dehydrogenase derived from N. massiliense was obtained by synthesis. […] The activity of the enzyme was measured by determining a decrease in absorbance at wavelength of 340 nm of NADPH or NADH produced by the catalytic reaction of the enzyme. […]
Would you mind labelling by D-amino acid synthesis activity (specific activity), Three-mutation enzyme, NADPH? At or over 5 µmol/min/mg is satisfied, under is not satisfied.

>  <Molecule>
CCC(=O)C(=O)O

>  <Assigned Label>
not satisfied

$$$$
>  <Molecule>
CCCCCCC(=O)C(=O)O

>  <Assigned Label>
satisfied

$$$$
>  <Molecule>
CC(C)C(=O)C(=O)O

>  <Assigned Label>
not satisfied

$$$$
>  <Molecule>
CC(=O)C(=O)O

>  <Assigned Label>
not satisfied

$$$$
>  <Molecule>
O=C(O)CC(=O)C(=O)O

>  <Assigned Label>
not satisfied

$$$$
>  <Molecule>
CC(C)CC(=O)C(=O)O

>  <Assigned Label>
not satisfied

$$$$
>  <Molecule>
O=C(O)C(=O)Cc1ccccc1

>  <Assigned Label>
not satisfied

$$$$
>  <Molecule>
CSCCC(=O)C(=O)O

>  <Assigned Label>
satisfied

$$$$
>  <Molecule>
CCC(C)C(=O)C(=O)O (stereo not shown)

>  <Assigned Label>
not satisfied

$$$$
